System: NCI-H460
Method notes: NCI tumour cell line growth inhibition, 48 h
Active and inactive are the calls of the source. No stated cut-off is given here; in the data, active = GI50 up to about 1.1 µM and inactive = higher.
Quick list: GI50 per entry.

compound="CC(=O)N1C(C(=O)NN2CCOCC2)CSC1c1ccccc1 (stereo unspecified)" result="> 100 µM (inactive)"

Query: I am curious: what GI50 value has been reported for O=[N+]([O-])c1ccc(-c2ccc(-c3csc(Nc4ccccc4)n3)o2)cc1 ?
Result: 34.8 µM (inactive)

Query: What does the data say about its GI50? Entry: COC(=O)CCC(NC(=S)N/N=C/c1ccco1)C(=O)OC (stereo unspecified)
Result: > 100 µM (inactive)

Query: Could you tell me which GI50 is on file for CN(C)CC1CCC(=C2CCCC2)C1=O (stereo unspecified) ?
Result: 21.7 µM (inactive)

Query: Consider the compound COc1cc([C@@H]2c3cc4c(cc3C[C@@H]3COC(=O)C32)OCO4)cc(OC)c1O (stereo partly specified) and give its measured GI50.
Result: 0.032 µM (active)

Query: Requested read-out: GI50. Entry: C=CCc1cc(C(Cc2ccccc2)NC(C)C)cc(OCc2ccccc2)c1OCc1ccccc1 (stereo unspecified)
Result: 15 µM (inactive)

Query: May I ask what GI50 has been recorded for O=c1cc2ccccc2nn1Cc1ccccc1Cl ?
Result: > 100 µM (inactive)

Query: Give the measured GI50 of Nc1nc(NCC2(CO)CCC2)cc(=O)[nH]1 .
Result: > 100 µM (inactive)

Query: Reported GI50, compound CC(C)Cc1cccc(C(C)C)c1NC(=O)CCC(=O)N/N=C1\C(=N/NC(=O)CCC(=O)Nc2c(C(C)C)cccc2C(C)C)C(c2ccc3c(c2)OCO3)Oc2ccccc21 (stereo unspecified) : ____
Result: 27.9 µM (inactive)

Query: Request the reported GI50 associated with CSc1nc2c(c(=O)n1C)N=C(c1ccccc1)[C@H](C(CC(=O)c1ccccc1)c1ccccc1)C(c1ccccc1)N2 (stereo partly specified)
Result: 9.2 µM (inactive)
